test: Restrictive medium S. cerevisiae growth inhibition, OD615, pilot screen of yeast lifespan reduction project, restrictive growth control (AID 706); details: OD615, 48 h, at 10 µM, active compounds read high;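 note: modified DeaD lifespan yeast strain shifted to restrictive glucose medium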
A collection of compounds and their measured growth inhibition
observationType: growth inhibition (%)

COc1ccc(Cn2c(=O)[nH]c3cc(C(=O)NCCCN4CCCC4=O)ccc3c2=O)cc1 : -12.3
CCCS(=O)(=O)n1nc(-c2ccc(OC)cc2OC)cc1N : -22.5
COc1ccc(C2C(C(=O)Nc3cc(C)on3)c3ccccc3C(=O)N2C)cc1 (stereo not given) : -2.79
Cc1ccc(N(CC(O)CN2CCCC2)S(=O)(=O)c2ccccc2)cc1 (stereo not given) : -3.1
CCC(C)NC(=O)c1ccccc1NC(=O)CN1C(=O)c2ccccc2S1(=O)=O (stereo not given) : -18.6
CCN(CC)S(=O)(=O)c1ccc(C(=O)Nc2ccc(OCC(=O)N3CCOCC3)cc2)cc1 : -11
O=C(Nc1nnc(-c2ccc3c(c2)CCCC3)o1)C1CCCCC1 : -4.87
COc1ccc(OC)c(N(CC(=O)NCc2ccccn2)S(C)(=O)=O)c1 : -6.94
COC(=O)C1Sc2[nH]c(=O)sc2C(c2ccc(Cl)cc2)C1C(=O)OC (stereo not given) : -14.8
CCOC(=O)CN1c2ccccc2NC(=O)CC1C (stereo not given) : -4.52
